// values below are reported TGI
- Test system: MDA-MB-231 breast
- protocol_text: NCI tumour cell line growth inhibition, 48 h
Output spec: scalar in µM, unitless text.

Here are 2 compounds together with their reported answers.
-- ask Entry COc1cc(Cn2c3c(c4c(CN(C)C)c(O)ccc42)C(=O)c2ccccc2C3=O)cc(OC)c1 has what TGI?
-- reply 40.7

-- ask Recorded TGI for COC(=O)[C@]12CC[C@@H](C)[C@H](C)[C@@H]1C1=CC[C@@H]3[C@@]4(C)C[C@@H](OC(=O)c5ccco5)[C@H](O)[C@@](C)(CO)[C@@H]4[C@H](O)C[C@@]3(C)[C@]1(C)CC2 , please?
-- reply 4.8

Let's switch to this compound now.
-- ask Recorded TGI of CCOP(=O)(CCP(=O)(OCC)OCC)OCC.C[CH2][Sn]([Cl])([Cl])[CH2]C , please.
-- reply 92.2
